experiment: self-splicing fitness, log relative to wild type (ln ratio); higher = more splicing; Tetrahymena group I intron in knt gene, E. coli kanamycin selection, DiMSum; sequences stand for … in CUCUCU…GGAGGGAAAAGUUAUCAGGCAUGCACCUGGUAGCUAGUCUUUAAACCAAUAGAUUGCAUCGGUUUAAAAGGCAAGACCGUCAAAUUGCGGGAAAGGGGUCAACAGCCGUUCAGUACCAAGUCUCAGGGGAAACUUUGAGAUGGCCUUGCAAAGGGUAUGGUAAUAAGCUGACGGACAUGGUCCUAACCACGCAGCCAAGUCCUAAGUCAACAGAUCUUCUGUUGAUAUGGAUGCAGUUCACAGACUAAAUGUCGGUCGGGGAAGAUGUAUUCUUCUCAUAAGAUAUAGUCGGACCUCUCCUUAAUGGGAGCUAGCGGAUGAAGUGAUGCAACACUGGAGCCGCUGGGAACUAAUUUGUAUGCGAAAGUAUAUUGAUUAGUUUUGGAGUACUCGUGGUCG; details: 30 °C;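 further: selection with 25 µg/mL kanamycin versus none on LB agar overnight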
Kindly supply the reported self-splicing fitness (ln) values for the records listed here.
Reply with just the number.

*Q* Look up and state reported self-splicing fitness (ln) for "UGAAAGCAAUAUUACGGGAA"
*A* -2.6

*Q* Look up and state reported self-splicing fitness (ln) for "CUCGAGCAAUAUUACGUCUA"
*A* -1.79

*Q* Look up and state reported self-splicing fitness (ln) for "CUAGAGCAAUAUUACGCUGA"
*A* -3.92

*Q* Look up and state reported self-splicing fitness (ln) for "GACAAGCAAUAUUACGUGAG"
*A* -2.28

*Q* Look up and state reported self-splicing fitness (ln) for "AUUGAGCAAUAUUACGAUGC"
*A* -1.58

*Q* Look up and state reported self-splicing fitness (ln) for "AUUCAGCAAUAUUACGAUGC"
*A* -1.27

*Q* Look up and state reported self-splicing fitness (ln) for "GAUCAGCAAUAUUACGGCGG"
*A* -2.43

*Q* Look up and state reported self-splicing fitness (ln) for "AUAUAGCAAUAUUACGACUU"
*A* 0.217

*Q* Look up and state reported self-splicing fitness (ln) for "UUGUAGCAAUAUUACGCCAG"
*A* -0.515

*Q* Look up and state reported self-splicing fitness (ln) for "GGAGAGCAAUAUUACGGGGA"
*A* -3.31

*Q* Look up and state reported self-splicing fitness (ln) for "CGUUAGCAAUAUUACGAGUU"
*A* -2.98

*Q* Look up and state reported self-splicing fitness (ln) for "AUUCAGCAAUAUUACGUCGC"
*A* -2.74

*Q* Look up and state reported self-splicing fitness (ln) for "CUGGAGCAAUAUUACGGGCU"
*A* -3.05

*Q* Look up and state reported self-splicing fitness (ln) for "AUAUAGCAAUAUUACGAUAC"
*A* -1.66

*Q* Look up and state reported self-splicing fitness (ln) for "AGUGAGCAAUAUUACGCAAG"
*A* -2.68

*Q* Look up and state reported self-splicing fitness (ln) for "UUACAGCAAUAUUACGAACG"
*A* -0.834

====

Kindly supply the reported self-splicing fitness (ln) values for the records listed here.
assay: self-splicing fitness, log relative to wild type (ln ratio); higher = more splicing; Tetrahymena group I intron in knt gene, E. coli kanamycin selection, DiMSum; sequences stand for … in CUCUCU…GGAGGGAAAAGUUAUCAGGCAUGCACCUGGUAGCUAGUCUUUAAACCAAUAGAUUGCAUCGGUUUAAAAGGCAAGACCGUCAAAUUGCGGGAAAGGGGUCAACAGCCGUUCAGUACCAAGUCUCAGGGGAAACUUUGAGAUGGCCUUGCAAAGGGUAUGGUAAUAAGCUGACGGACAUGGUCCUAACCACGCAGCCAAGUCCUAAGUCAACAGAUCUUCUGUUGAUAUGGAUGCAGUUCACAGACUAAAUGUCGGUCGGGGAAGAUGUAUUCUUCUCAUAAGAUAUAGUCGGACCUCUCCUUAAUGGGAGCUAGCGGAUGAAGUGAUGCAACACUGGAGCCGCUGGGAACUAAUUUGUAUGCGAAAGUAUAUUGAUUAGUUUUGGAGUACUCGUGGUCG; conditions: 37 °C
Reply with just the number.

*Q* Look up and state reported self-splicing fitness (ln) for "UGUUAGCAAUAUUACGCUGU"
*A* -0.914

*Q* Look up and state reported self-splicing fitness (ln) for "GACGAGCAAUAUUACGGCCA"
*A* 0.241

*Q* Look up and state reported self-splicing fitness (ln) for "UAGUAGCAAUAUUACGUUUU"
*A* -2.27

*Q* Look up and state reported self-splicing fitness (ln) for "AAGCAGCAAUAUUACGCAUU"
*A* -1.23

*Q* Look up and state reported self-splicing fitness (ln) for "CUCAAGCAAUAUUACGGAGU"
*A* -3.04

*Q* Look up and state reported self-splicing fitness (ln) for "AUGGAGCAAUAUUACGGGUU"
*A* -3.16

*Q* Look up and state reported self-splicing fitness (ln) for "AACCAGCAAUAUUACGCCCG"
*A* -0.271

*Q* Look up and state reported self-splicing fitness (ln) for "CUUUAGCAAUAUUACGAUCG"
*A* 0.476
